- assay.text: protein stability index of a GFP-peptide fusion (yeast GPS) (PSI 1-4); higher = more stable; sorted into four equal gates, so the index is relative within each strain
- cond: ubr1∆
The entries below are paired with their reported protein stability index.
assay.readout: protein stability index

>>> meas_value("HLSSKTGLHFGRLSLRS [QCR10]")
3.14
>>> meas_value("WSSLLNEGLVEYIDAEE [RPB2]")
2.97
>>> meas_value("TRKSLNNAVRFSKQCLI [ECM29]")
2.56
>>> meas_value("KGDINPEVSMIRDIREK [RPB2]")
2.68
>>> meas_value("AAIWTLCKTKMVCETDV [RPO21]")
1.47
>>> meas_value("VEDTLHVNKRKRVSGTS [YOR098C/NUP1]")
1.52
>>> meas_value("LPGTEKGRKTNKYANND [CSL4]")
3.41
